testTarget: Agg-1 (Homo sapiens)
Sequence (O75173 213-837): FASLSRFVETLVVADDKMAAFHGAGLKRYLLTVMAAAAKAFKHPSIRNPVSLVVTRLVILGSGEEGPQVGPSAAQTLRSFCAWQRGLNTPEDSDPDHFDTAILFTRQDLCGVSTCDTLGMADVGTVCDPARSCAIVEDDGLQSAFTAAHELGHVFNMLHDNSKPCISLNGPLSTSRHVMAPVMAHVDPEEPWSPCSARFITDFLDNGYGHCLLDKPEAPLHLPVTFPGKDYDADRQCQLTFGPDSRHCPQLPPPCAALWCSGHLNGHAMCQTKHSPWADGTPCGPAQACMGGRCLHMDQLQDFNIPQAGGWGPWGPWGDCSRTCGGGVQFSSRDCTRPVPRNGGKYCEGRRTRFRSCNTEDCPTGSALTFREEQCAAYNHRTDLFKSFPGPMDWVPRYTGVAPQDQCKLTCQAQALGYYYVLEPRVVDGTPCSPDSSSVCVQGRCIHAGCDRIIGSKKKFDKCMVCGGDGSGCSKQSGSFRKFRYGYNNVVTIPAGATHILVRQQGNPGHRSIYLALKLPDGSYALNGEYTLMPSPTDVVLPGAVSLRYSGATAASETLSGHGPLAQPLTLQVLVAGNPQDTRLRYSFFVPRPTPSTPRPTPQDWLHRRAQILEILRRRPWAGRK
assayProtocol: Agg-1 FRET assay
Format: biochemical
testConditions: read-out: Agg1 IC50
// IC50 lookup, one value per entry

compound: O=C(CNCc1cccc2ccccc12)NC(c1ccccc1Cl)c1cc(Cl)c2cccnc2c1O (stereo not drawn)
IC50: ~20 µM

compound: O=C(COc1ccccc1)NC(c1ccccc1Cl)c1cc([N+](=O)[O-])c2cccnc2c1O (stereo not drawn)
IC50: 11.4 µM

compound: Cn1nnc2cc(C(NC(=O)COc3ccccc3)c3cc(Cl)c4cccnc4c3O)ccc21 (stereo not drawn)
IC50: > 20 µM

compound: O=C(COc1ccccc1)NC(c1ccccc1Cl)c1cc(Cl)c2cccnc2c1O (stereo not drawn)
IC50: > 22 µM

compound: CNCC(=O)Nc1cccc(C(NC(=O)COc2ccccc2)c2cc(Cl)c3cccnc3c2O)c1 (stereo not drawn)
IC50: 22 to 67 µM

compound: O=C(COc1ccccc1)NC(c1cn2c(n1)COCC2)c1cc(Cl)c2cccnc2c1O (stereo not drawn)
IC50: > 20 µM

Query: Indicate the recorded IC50 value for this compound: O=C(COc1ccc(-c2ccccc2)cc1)NC(c1ccccc1Cl)c1cc(Cl)c2cccnc2c1O (stereo not drawn)
Response: 66 to 200 µM

Query: Indicate the recorded IC50 value for this compound: O=C(COc1ccccc1)NC(c1ccccc1)c1cc(Cl)c2ccccc2c1O (stereo not drawn)
Response: > 22 µM

Query: Indicate the recorded IC50 value for this compound: O=C(CNCc1ccc(-c2ccccc2)cc1)NC(c1ccccc1)c1cc(Cl)c2cccnc2c1O (stereo not drawn)
Response: > 20 µM

###

testTarget: recombinant human Aggrecanase-2 Agg2-Phe628 (Homo sapiens)
Sequence (Q9UNA0 262-628 limits assumed): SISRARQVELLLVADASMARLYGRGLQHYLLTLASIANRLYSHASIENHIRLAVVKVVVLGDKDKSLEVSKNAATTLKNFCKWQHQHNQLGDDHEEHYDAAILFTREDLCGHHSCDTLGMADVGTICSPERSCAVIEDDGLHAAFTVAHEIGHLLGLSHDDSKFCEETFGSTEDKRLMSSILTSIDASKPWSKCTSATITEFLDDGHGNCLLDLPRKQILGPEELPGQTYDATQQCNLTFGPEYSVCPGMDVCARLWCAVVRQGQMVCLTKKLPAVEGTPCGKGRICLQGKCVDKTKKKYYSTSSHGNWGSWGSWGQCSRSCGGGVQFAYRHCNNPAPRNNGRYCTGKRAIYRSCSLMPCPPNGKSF
assayProtocol: Aggrecanase 2 in vitro enzyme assay (Agg-2 FRET, quenched fluorescent peptide substrate)
Type: biochemical
Set-up: purified recombinant human Aggrecanase-2 Agg2-Phe628 (MW=41,737); This is a truncated form of full-length human aggrecanase-2; made in house; host or cells: CHO cells
testConditions: read-out: Agg-2 FRET Median IC50
// pIC50 lookup, one value per entry
Schema: pIC50 number; meaning minus log10 of the concentration expressed in molar units.

compound: O=C(Cc1ccccc1)NC(c1ccccc1)c1cc(Cl)c2cccnc2c1O (centres unmarked)
endpointValue: 5.60
--
compound: COc1ccc(C(NC(=O)COc2ccccc2)c2ccc3cccnc3c2O)cc1 (centres unmarked)
endpointValue: 5.36
--
compound: O=C(CNCc1ccc2c(c1)OCO2)NC(c1ccccc1)c1cc(Cl)c2cccnc2c1O (centres unmarked)
endpointValue: 5.56

Query: Output reported pIC50 of the compound Cc1cc(C(NC(=O)COc2ccccc2)c2cccc([N+](=O)[O-])c2)c(O)c2ncccc12 (centres unmarked) on recombinant human Aggrecanase-2 Agg2-Phe628 (Homo sapiens).
Response: 5.88

Query: Output reported pIC50 of the compound COc1ccc(C(NC(=O)COc2ccc(C)cc2)c2ccc3cccnc3c2O)cc1 (centres unmarked) on recombinant human Aggrecanase-2 Agg2-Phe628 (Homo sapiens).
Response: 5.55

Query: Output reported pIC50 of the compound Cc1ccsc1C(NC(=O)COc1ccccc1)c1cc(Cl)c2cccnc2c1O (centres unmarked) on recombinant human Aggrecanase-2 Agg2-Phe628 (Homo sapiens).
Response: 5.86

Query: Output reported pIC50 of the compound Cc1ccc(C(NC(=O)CN(C)c2ccccc2)c2cc(Cl)c3cccnc3c2O)cc1 (centres unmarked) on recombinant human Aggrecanase-2 Agg2-Phe628 (Homo sapiens).
Response: 6.11

Query: Output reported pIC50 of the compound CC(=O)c1ccc(NCC(=O)NC(c2ccc(C)cc2)c2cc(Cl)c3cccnc3c2O)cc1 (centres unmarked) on recombinant human Aggrecanase-2 Agg2-Phe628 (Homo sapiens).
Response: 5.95

Query: Output reported pIC50 of the compound O=C(O)Cc1cccc(C(NC(=O)COc2ccccc2)c2cc(Cl)c3cccnc3c2O)c1 (centres unmarked) on recombinant human Aggrecanase-2 Agg2-Phe628 (Homo sapiens).
Response: 5.35

Query: Output reported pIC50 of the compound O=C(Cc1ccccc1)NC(c1ccc(F)cc1)c1cc(Cl)c2cccnc2c1O (centres unmarked) on recombinant human Aggrecanase-2 Agg2-Phe628 (Homo sapiens).
Response: 5.67

Query: Output reported pIC50 of the compound O=C(Cc1ccccc1)NC(/C=C/c1ccccc1)c1cc(Cl)c2cccnc2c1O (centres unmarked) on recombinant human Aggrecanase-2 Agg2-Phe628 (Homo sapiens).
Response: 4.30

Query: Output reported pIC50 of the compound O=C(CNCc1cccc2ccccc12)NC(c1ccccc1)c1cc(Cl)c2cccnc2c1O (centres unmarked) on recombinant human Aggrecanase-2 Agg2-Phe628 (Homo sapiens).
Response: 5.81

Query: Output reported pIC50 of the compound O=C(CNCc1ccccc1)NC(c1ccccc1)c1cc(Cl)c2cccnc2c1O (centres unmarked) on recombinant human Aggrecanase-2 Agg2-Phe628 (Homo sapiens).
Response: 5.43

Query: Output reported pIC50 of the compound O=C(COc1ccccc1)NC(c1cccs1)c1cc(Cl)c2cccnc2c1O (centres unmarked) on recombinant human Aggrecanase-2 Agg2-Phe628 (Homo sapiens).
Response: 5.91
